# measured target: T1, Human in house BCMA (Homo sapiens, UniProt Q02223)
# T1 construct: CD33 signal peptide (N); TEV site (internal); Fc (C); made in house
# T1 sequence (Q02223 with tags, fused parts or gaps limits assumed): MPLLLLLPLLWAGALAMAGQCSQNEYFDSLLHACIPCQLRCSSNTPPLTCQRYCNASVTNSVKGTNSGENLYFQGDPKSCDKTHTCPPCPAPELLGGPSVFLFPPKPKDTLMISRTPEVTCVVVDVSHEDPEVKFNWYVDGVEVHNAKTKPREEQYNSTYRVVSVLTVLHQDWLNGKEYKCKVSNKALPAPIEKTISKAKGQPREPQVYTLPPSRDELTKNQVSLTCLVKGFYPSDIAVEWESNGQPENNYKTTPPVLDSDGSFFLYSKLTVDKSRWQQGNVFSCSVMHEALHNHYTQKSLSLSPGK
# method description: ProteOn analysis of CA8 chimeric and humanised constructs, human in house BCMA
# Assay type: binding
# measurement context: Run 1, Human in house BCMA, ProteOn, 25° C.; in s-1 (unit assumed)
Listing of recorded kd by entry.
metric: kd

>>> readout_value("CA8 humanised J4M2: humanised CA8 anti-BCMA antibody, VH J4 (SEQ ID NO:19) + VL M2 (SEQ ID NO:35) (antibody, V domains shown, Humansed antibody sequence) VH: QVQLVQSGAEVKKPGSSVKVSCKGSGYTFTNYWMHWVRQAPGQGLEWIGATYRGHSDTYYNQKFKGRATLTADTSTSTAYMELSSLRSEDTAVYYCTRGAIYNGYDVLDNWGQGTLVTVSS VL: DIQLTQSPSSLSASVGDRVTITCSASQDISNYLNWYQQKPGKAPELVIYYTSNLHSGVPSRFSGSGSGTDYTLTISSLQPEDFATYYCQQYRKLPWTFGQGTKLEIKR")
"7.06E−05"
>>> readout_value("S307118G03 humanised H3L1: humanised S307118G03, VH H3 (SEQ ID NO:83) + VL L1 (SEQ ID NO:91) (antibody, V domains shown, Humansed antibody sequence) VH: QVQLVQSGAEVKKPGSSVKVSCKASGYTFTDYYMKWVRQAPGQGLEWIGEIYPNNGGITYNQKFKGRATLTVDKSTSTAYMELSSLRSEDTAVYYCANGYEFVYWGQGTLVTVSS VL: DIQMTQSPSSLSASVGDRVTITCSASQGISNYLNWYQQKPGKAPKLLIYYTSSLHSGVPSRFSGSGSGTDYTLTISSLQPEDFATYYCQQYSKLPWTFGQGTKLEIKR")
"2.28E−03"
